Target: Protein kinase C theta type (Homo sapiens, UniProt Q04759)
Sequence (Q04759 whole entry): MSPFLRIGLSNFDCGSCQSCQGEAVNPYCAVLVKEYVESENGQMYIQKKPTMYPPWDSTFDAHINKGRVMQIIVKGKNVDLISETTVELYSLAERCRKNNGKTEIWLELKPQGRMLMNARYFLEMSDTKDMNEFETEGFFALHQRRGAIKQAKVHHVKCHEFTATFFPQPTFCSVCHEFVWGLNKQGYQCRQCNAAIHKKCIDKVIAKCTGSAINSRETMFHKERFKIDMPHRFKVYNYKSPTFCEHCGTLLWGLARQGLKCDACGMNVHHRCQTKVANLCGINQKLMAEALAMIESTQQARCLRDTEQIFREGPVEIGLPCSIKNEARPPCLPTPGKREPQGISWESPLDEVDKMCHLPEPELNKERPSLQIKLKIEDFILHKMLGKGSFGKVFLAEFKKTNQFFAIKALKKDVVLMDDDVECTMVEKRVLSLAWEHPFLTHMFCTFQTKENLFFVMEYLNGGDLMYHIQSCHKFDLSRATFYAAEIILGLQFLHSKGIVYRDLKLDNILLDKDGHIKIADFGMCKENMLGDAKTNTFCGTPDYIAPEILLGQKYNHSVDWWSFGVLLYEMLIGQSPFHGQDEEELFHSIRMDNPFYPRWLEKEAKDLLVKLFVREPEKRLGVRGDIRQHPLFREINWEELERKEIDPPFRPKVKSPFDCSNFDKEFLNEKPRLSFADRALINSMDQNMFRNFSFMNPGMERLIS
pKi: −log10 of the molar value.
Readout kind: pKi

* CCCC(=O)O[C@@H]1[C@@H](C)[C@]2(O)[C@@H]3C=C(C)C(=O)[C@H]3CC(CO)=C[C@H]2[C@@H]2C(C)(C)[C@]12OC(=O)CCC | 9.14

###

Target: Protein kinase C delta type (Homo sapiens)
Sequence (Q05655 whole entry, the tested form may be a part): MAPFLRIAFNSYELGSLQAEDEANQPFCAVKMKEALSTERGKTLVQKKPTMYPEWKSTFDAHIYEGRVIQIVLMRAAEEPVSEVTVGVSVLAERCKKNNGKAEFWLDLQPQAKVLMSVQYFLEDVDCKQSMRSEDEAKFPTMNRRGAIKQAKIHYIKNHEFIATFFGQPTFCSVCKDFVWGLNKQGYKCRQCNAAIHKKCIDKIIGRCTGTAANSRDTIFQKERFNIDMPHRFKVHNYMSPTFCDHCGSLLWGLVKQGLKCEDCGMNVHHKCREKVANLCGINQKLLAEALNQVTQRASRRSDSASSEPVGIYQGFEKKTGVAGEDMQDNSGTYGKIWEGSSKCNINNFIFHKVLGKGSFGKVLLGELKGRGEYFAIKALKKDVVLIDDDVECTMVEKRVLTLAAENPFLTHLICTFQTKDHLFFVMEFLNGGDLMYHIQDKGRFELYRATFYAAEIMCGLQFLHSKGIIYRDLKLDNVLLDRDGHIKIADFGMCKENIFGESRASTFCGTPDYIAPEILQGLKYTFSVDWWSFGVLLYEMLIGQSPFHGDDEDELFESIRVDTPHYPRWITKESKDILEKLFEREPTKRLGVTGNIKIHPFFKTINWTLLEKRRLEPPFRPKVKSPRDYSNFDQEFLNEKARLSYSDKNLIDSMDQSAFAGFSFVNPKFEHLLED
Assay comment: Displacement of 3[H]PDBu from Protein kinase C delta C1b domain
pKi: −log10 of the molar value.
Readout kind: pKi

- CCCC(=O)O[C@@H]1[C@@H](C)[C@]2(O)[C@@H]3C=C(C)C(=O)[C@H]3CC(CO)=C[C@H]2[C@@H]2C(C)(C)[C@]12OC(=O)CCC: 9.26
